This collection of values is drawn from PubChem BioAssay (NCI).

Entries and their GI50 values follow.
- Tested on: MOLT-4 leukemia
- ASSAY PROTOCOL: NCI tumour cell line growth inhibition, 384-well format

[[record]]
compound = "C#CCC(Cc1cnc2nc(N)nc(N)c2n1)c1ccc(C(=O)N[C@@H](CCC(=O)O)C(=O)O)cc1 (stereo partly specified)"
assayed_system = "MOLT-4 leukemia"
value_reported = "< 10 nM"

[[record]]
compound = "Cc1c(-c2c(-c3ccc(F)o3)sc3ncnc(O[C@H](Cc4ccccc4OCc4ccnn4CC(F)(F)F)C(=O)O)c23)ccc(OCCN2CCN(C)CC2)c1Cl"
assayed_system = "MOLT-4 leukemia"
value_reported = "< 10 nM"

[[record]]
compound = "COc1ncc(-c2ccc3nccc(-c4ccnnc4)c3c2)cc1NS(=O)(=O)c1ccc(F)cc1F"
assayed_system = "MOLT-4 leukemia"
value_reported = "< 10 nM"

[[record]]
compound = "CC1=C2C[C@H]3[C@@H](CC[C@@H]4CC(NS(C)(=O)=O)CC[C@@]43C)[C@@H]2CC[C@@]2(C1)O[C@@H]1C[C@H](C)CN[C@H]1[C@H]2C (stereo partly specified)"
assayed_system = "MOLT-4 leukemia"
value_reported = "1830 nM"

[[record]]
compound = "N[C@@H]1CCCC[C@H]1N.O=C([O-])C(=O)[O-].[Pt+4]"
assayed_system = "MOLT-4 leukemia"
value_reported = "276 nM"


Let us examine a further case.
Query GI50 on MOLT-4 leukemia for C=CC(=O)N1CCN(c2nc(=O)n(-c3c(C)ccnc3C(C)C)c3nc(-c4c(O)cccc4F)c(F)cc23)[C@@H](C)C1
9940 nM

---

- Test system: IGROV1 ovarian
- ASSAY PROTOCOL: NCI tumour cell line growth inhibition, 384-well format
MEASURED PARAMETER: TGI

[[record]]
compound = "Cc1ccccc1N=Nc1ccc(NC(=O)c2ccnn2C)c(C)c1"
value_reported = "> 100 µM"

[[record]]
compound = "C=CC(=O)N1CCN(c2nc(=O)n(-c3c(C)ccnc3C(C)C)c3nc(-c4c(O)cccc4F)c(F)cc23)[C@@H](C)C1"
value_reported = "71 µM"

[[record]]
compound = "C#CCC(Cc1cnc2nc(N)nc(N)c2n1)c1ccc(C(=O)N[C@@H](CCC(=O)O)C(=O)O)cc1 (some centres undefined)"
value_reported = "< 0.01 µM"


Consider the compound shown here: N[C@@H]1CCCC[C@H]1N.O=C([O-])C(=O)[O-].[Pt+4] What is its recorded TGI?
> 100 µM

---

- System: DU-145 prostate
- ASSAY PROTOCOL: NCI tumour cell line growth inhibition, 384-well format
MEASURED PARAMETER: TGI (µM)
A number alone suffices; assume µM.

[[record]]
compound = "N[C@@H]1CCCC[C@H]1N.O=C([O-])C(=O)[O-].[Pt+4]"
value_reported = 36


Let us examine a further case.
Consider the compound shown here: C=CC(=O)N1CCN(c2nc(=O)n(-c3c(C)ccnc3C(C)C)c3nc(-c4c(O)cccc4F)c(F)cc23)[C@@H](C)C1 What is its recorded TGI?
74.7

---

- System: SW-620 colon
- ASSAY PROTOCOL: NCI tumour cell line growth inhibition, 384-well format
MEASURED PARAMETER: TGI

Consider the compound shown here: C#CCC(Cc1cnc2nc(N)nc(N)c2n1)c1ccc(C(=O)N[C@@H](CCC(=O)O)C(=O)O)cc1 (some centres undefined) What is its recorded TGI?
< 0.01 µM

Consider the compound shown here: CC1=C2C[C@H]3[C@@H](CC[C@@H]4CC(NS(C)(=O)=O)CC[C@@]43C)[C@@H]2CC[C@@]2(C1)O[C@@H]1C[C@H](C)CN[C@H]1[C@H]2C (some centres undefined) What is its recorded TGI?
26.8 µM

Consider the compound shown here: Cc1ccccc1N=Nc1ccc(NC(=O)c2ccnn2C)c(C)c1 What is its recorded TGI?
> 100 µM

Consider the compound shown here: C=CC(=O)N1CCN(c2nc(=O)n(-c3c(C)ccnc3C(C)C)c3nc(-c4c(O)cccc4F)c(F)cc23)[C@@H](C)C1 What is its recorded TGI?
> 100 µM
